Target: Interstitial collagenase (Homo sapiens, UniProt P03956)
Sequence (P03956 whole entry): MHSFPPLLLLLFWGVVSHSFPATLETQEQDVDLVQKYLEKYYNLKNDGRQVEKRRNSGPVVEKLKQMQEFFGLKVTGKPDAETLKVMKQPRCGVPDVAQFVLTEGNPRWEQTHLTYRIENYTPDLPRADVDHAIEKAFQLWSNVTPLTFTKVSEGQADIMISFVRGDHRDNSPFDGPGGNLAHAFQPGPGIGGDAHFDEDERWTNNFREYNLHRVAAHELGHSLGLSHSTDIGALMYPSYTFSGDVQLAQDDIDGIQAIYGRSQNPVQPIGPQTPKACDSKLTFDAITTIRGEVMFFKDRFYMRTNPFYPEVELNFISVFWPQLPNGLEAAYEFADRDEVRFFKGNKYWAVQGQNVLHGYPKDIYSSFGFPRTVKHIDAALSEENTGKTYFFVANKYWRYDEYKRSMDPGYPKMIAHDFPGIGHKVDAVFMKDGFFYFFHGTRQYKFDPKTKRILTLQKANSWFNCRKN
Experiment: Inhibition of Matrix metalloprotease-1
reported metric: IC50 (nM)
Please state the figure in nM; there is no need to write the unit.

Supply IC50 value. Item: CN1CCN(Cc2cc(Br)cc(C(=O)NO)c2N(C)S(=O)(=O)c2ccc(Oc3ccc(Cl)cc3)cc2)CC1
82

* * *

Target: Collagenase 3 (Homo sapiens)
Assay: In vitro inhibition of Matrix metalloprotease-13.
pIC50: −log10 of the molar value.
Would you please tag the item t when its pIC50 is 8 or above, and f when it is below?

Below, 5 compounds whose answers are already recorded.
CCN(CC)Cc1cccc(C(=O)NO)c1N(C)S(=O)(=O)c1ccc(OC)cc1    f
COc1ccc(S(=O)(=O)N(C)c2c(CN3CCN(C)CC3)cc(-c3ccc4ccccc4c3)cc2C(=O)NO)cc1    t
COc1ccc(S(=O)(=O)N(C)c2c(CN3CCN(c4ccccc4)CC3)cc(Br)cc2C(=O)NO)cc1    t
COc1ccc(S(=O)(=O)N(Cc2ccc(OCCN3CCCCC3)cc2)c2c(C)cc(Br)cc2C(=O)NO)cc1    t
COc1ccc(S(=O)(=O)N(C)c2c(CN3CCN(C)CC3)cc(-c3ccc(OC(F)(F)F)cc3)cc2C(=O)NO)cc1    t

Check this compound for pIC50 at or above 8: CN1CCN(Cc2cccc(C(=O)NO)c2N(C)S(=O)(=O)c2ccc(Oc3ccc(Cl)cc3)cc2)CC1
t

* * *

pIC50 values by entry
Molecular target: Interstitial collagenase (Homo sapiens)
Test: In vitro inhibition of Matrix metalloprotease-1.
// pIC50: -log10(molar conc.)

Example cases with answers are listed next.
COc1ccc(S(=O)(=O)N(C)c2c(CN3CCN(c4ccccc4)CC3)cc(Br)cc2C(=O)NO)cc1    6.35
COC(=O)C1CCCN1Cc1cccc(C(=O)NO)c1N(C)S(=O)(=O)c1ccc(OC)cc1 (stereo not given)    6.29

Supply pIC50 value. Item: COc1ccc(S(=O)(=O)N(C)c2c(CN3CCN(C)CC3)cc(-c3ccc(OC(F)(F)F)cc3)cc2C(=O)NO)cc1
6.13

Supply pIC50 value. Item: COc1ccc(S(=O)(=O)N(C)c2c(CN3CCN(C)CC3)cc(-c3ccc4ccccc4c3)cc2C(=O)NO)cc1
6.46

Supply pIC50 value. Item: CCN(CC)Cc1cccc(C(=O)NO)c1N(C)S(=O)(=O)c1ccc(OC)cc1
6.13

* * *

Molecular target: UniProt P45452
reported metric: pIC50
// pIC50: -log10(molar conc.)

Supply pIC50 value. Item: CN1CCN(Cc2cc(Br)cc(C(=O)NO)c2N(C)S(=O)(=O)c2ccc(Oc3ccc(Cl)cc3)cc2)CC1
9.15

* * *

IC50 values by entry
Target: Disintegrin and metalloproteinase domain-containing protein 17 (Homo sapiens, UniProt P78536)
Sequence (P78536 whole entry, the tested form may be a part): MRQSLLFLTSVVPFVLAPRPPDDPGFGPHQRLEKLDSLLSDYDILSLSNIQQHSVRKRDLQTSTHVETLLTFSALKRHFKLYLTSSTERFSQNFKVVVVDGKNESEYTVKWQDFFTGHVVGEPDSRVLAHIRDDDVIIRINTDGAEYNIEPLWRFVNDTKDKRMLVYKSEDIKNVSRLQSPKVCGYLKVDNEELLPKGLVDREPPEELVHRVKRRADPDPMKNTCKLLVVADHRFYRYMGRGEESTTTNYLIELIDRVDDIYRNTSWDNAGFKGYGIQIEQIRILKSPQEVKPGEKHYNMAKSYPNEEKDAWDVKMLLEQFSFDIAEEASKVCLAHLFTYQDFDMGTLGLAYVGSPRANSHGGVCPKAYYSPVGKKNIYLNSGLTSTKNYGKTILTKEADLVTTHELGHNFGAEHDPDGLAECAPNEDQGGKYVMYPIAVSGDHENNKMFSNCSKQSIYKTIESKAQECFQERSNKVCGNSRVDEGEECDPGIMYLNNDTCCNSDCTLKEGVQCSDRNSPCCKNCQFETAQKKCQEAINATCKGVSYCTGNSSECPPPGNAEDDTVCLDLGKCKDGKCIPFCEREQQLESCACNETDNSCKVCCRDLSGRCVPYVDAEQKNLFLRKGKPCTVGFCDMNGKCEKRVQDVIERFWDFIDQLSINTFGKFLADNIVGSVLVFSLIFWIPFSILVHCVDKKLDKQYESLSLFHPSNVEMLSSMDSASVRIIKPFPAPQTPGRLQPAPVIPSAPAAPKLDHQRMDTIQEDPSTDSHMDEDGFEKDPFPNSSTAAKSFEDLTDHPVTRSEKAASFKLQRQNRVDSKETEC
Test: In vitro inhibition of TNF-alpha converting enzyme.
Please state the figure in nM; there is no need to write the unit.

Example cases with answers are listed next.
COc1ccc(S(=O)(=O)N(CC#CCN2CCN(C)CC2)c2c(C)cc(Br)cc2C(=O)NO)cc1    26
CN1CCN(Cc2cccc(C(=O)NO)c2N(C)S(=O)(=O)c2ccc(Oc3ccc(Cl)cc3)cc2)CC1    122
COc1ccc(S(=O)(=O)N(C)c2c(CN3CCN(C)CC3)cc(-c3ccc4ccccc4c3)cc2C(=O)NO)cc1    49

Now consider a different compound.
Supply IC50 value. Item: COc1ccc(S(=O)(=O)N(C)c2c(CN3CCN(C)CC3)cc(-c3ccc(OC(F)(F)F)cc3)cc2C(=O)NO)cc1
210
